Test system: cancer cell lines
Assay Explanation: Cancer cell proliferation activity (CellTiterGlo, 72 h)
Format: cell-based
Assay Context: Homo sapiens, 786-0, 72 h, 786O cell line (kidney), 72 h; read-out: IC50
Endpoint Label: IC50

Solved cases below.
1. CC(C)C[C@]1(CO)O[C@@H](n2cnc3c(N)nc(F)nc32)C[C@@H]1O [Cpd. No. 133] :: 2.59 µM
2. N#C[C@]1(CO)O[C@@H](n2cc(F)c(N)nc2=O)C[C@@H]1O [Cpd. No. 6] :: > 50 µM
3. C[C@]1(CO)O[C@@H](n2cc(F)c(N)nc2=O)C[C@@H]1O [Cpd. No. 4] :: > 50 µM
4. CC[C@]1(CO)O[C@@H](n2cnc3c(N)nc(F)nc32)[C@H](O)[C@@H]1O [Cpd. No. 173] :: 0.11 µM
5. C[C@]1(CO)O[C@@H](n2cnc3c(N)nc(F)nc32)C[C@@H]1O [Cpd. No. 126] :: 0.52 µM

For record CC[C@]1(CO)O[C@@H](n2cc(F)c(N)nc2=O)C[C@@H]1O [Cpd. No. 2] the listed IC50 is > 50 µM

For record O=c1[nH]c(=O)n([C@H]2C[C@H](O)[C@](CO)(CF)O2)cc1F [Cpd. No. 112] the listed IC50 is > 50 µM

For record Cc1cn([C@H]2C[C@H](O)[C@@](C#N)(CO)O2)c(=O)[nH]c1=O [Cpd. No. 123] the listed IC50 is > 50 µM
